biological target: Adrenergic β2 (Homo sapiens); construct: Adherent H292 cells were removed from tissue culture flasks; endogenous in cells; host or cells: H292 cells; test: Adrenergic β2 mediated cAMP production in H292 cells; format: cell-based; settings: H292 cells, cAMP by AlphaScreen, 60 minutes at room temperature, rolipram 300 μM; read-out: β2 pEC50 (converted)
Sequence (P07550 whole entry): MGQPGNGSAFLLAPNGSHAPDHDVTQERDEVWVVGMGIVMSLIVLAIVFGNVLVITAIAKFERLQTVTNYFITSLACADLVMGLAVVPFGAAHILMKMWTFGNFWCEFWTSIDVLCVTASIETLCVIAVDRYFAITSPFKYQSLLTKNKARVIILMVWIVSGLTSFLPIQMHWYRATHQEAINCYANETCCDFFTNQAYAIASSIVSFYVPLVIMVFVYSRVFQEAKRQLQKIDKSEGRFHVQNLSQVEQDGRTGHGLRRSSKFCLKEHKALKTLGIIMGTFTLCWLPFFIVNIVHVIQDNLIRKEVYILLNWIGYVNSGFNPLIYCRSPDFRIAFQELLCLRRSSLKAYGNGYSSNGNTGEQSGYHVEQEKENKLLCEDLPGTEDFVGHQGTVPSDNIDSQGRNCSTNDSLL
Structures can show the parent of a compound that is named as a salt.
value_type: EC50 (nM)

[[record]]
compound = "O=C(CCNCCc1ccc(Cl)c(Cl)c1)N(CCNCCc1ccc(O)c2[nH]c(=O)sc12)C1CCC(F)(F)CC1 [Example 49, bis-trifluoroacetic acid salt]"
quantitative_result = 7.94


[P] CC(C)(Cc1ccccc1)NCCC(=O)N(CCNCCc1ccc(O)c2[nH]c(=O)sc12)C1CCCCC1 [Example 19, bis-trifluoroacetic acid salt]
[Q] CC(CN(C(=O)CCNCCc1cccc(F)c1)C1CCCCCC1)NCCc1ccc(O)c2[nH]c(=O)sc12 (stereo not drawn) [Example 104, bis-trifluoroacetic acid salt]
**Q:** Larger number for EC50: P , or Q ? Lab note: record the label of whichever item you select.
**A:** P
(P: 39.8 nM, Q: 5.01 nM)

---

molecular target: recombinant human Dopamine Subtype D2s receptors (Homo sapiens); construct: purchased Perkin Elmer; assay: Dopamine D2 selectivity binding assay ([3H]-spiperone); details: inhibition of [3H]-spiperone (0.16 nM) binding; read-out: D2 bind pIC50 (converted)
Sequence (P14416 1-414 isoform P14416-2): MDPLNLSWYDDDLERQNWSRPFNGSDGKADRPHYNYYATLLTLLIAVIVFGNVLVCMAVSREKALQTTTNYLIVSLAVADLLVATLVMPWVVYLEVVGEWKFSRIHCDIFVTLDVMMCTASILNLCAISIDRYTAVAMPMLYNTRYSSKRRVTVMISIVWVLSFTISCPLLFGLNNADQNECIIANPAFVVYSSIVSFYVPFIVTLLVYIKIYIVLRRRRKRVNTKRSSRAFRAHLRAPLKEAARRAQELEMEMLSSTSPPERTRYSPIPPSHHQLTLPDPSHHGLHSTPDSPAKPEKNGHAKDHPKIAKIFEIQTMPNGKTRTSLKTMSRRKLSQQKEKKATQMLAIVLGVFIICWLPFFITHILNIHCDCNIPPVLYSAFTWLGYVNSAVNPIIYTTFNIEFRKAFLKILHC
Where a name gives a salt, the structure may show the parent alone.
value_type: IC50 (nM)

[I] O=C(CCNCCc1ccccc1Cl)N(CCNCCc1ccc(O)c2[nH]c(=O)sc12)C1CCCCC1 [Example 17]
[II] O=C(CCNCCc1ccccc1)N(CCNCCc1ccc(O)c2[nH]c(=O)sc12)C1CCCCC1 [Example 5, bis-trifluoroacetic acid salt]
**Q:** Could you point out whether the larger IC50 belongs to I or to II ? Label of pick, please.
**A:** II

[P] O=C(CCNCCc1cccc(Cl)c1)N(CCNCCc1ccc(O)c2[nH]c(=O)sc12)C1CCC(F)(F)CC1 [Example 47, bis-trifluoroacetic acid salt]
[Q] O=C(CCNCCc1ccc(Cl)cc1)N(CCNCCc1ccc(O)c2[nH]c(=O)sc12)C1CCC(F)(F)CC1 [Example 48, bis-trifluoroacetic acid salt]
**Q:** For the two items P and Q , which reports the higher IC50 value? Answer = label.
**A:** P
(P: 158 nM, Q: 100 nM)

---

biological target: recombinant human adrenergic beta 1 receptors (Homo sapiens, UniProt P08588); construct: purchased Euroscreen; assay: Adrenergic β1 selectivity binding assay ([125I]-Iodocyanopindolol); details: inhibition of [125I]-Iodocyanopindolol (0.036 nM) binding; read-out: β1 bind p IC50 (converted)
Sequence (P08588 whole entry): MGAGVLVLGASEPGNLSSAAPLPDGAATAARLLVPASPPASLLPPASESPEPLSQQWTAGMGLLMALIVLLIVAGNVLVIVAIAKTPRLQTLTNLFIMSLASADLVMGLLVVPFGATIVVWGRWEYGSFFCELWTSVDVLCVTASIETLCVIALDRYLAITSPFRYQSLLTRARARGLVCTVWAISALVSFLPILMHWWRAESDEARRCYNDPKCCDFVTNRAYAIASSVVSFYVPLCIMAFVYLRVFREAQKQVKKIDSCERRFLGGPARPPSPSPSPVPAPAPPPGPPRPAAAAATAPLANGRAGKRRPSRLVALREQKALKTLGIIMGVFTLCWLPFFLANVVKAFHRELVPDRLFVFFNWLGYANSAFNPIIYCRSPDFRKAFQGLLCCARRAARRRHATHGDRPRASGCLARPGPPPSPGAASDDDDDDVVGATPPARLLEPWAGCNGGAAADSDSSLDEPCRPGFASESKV
Where a name gives a salt, the structure may show the parent alone.
value_type: IC50 (µM)

[[record]]
compound = "O=C(CCNCCc1ccc(Cl)cc1)N(CCNCCc1ccc(O)c2[nH]c(=O)sc12)C1CCCC1 [Example 28, bis-trifluoroacetic acid salt]"
unit_abbreviation = "µM"
quantitative_result = 6.31

[[record]]
compound = "CC(C)(C)CN(CCNCCc1ccc(O)c2[nH]c(=O)sc12)C(=O)CCNCCc1ccc(Cl)cc1 [Example 8, bis-trifluoroacetic acid salt]"
unit_abbreviation = "µM"
quantitative_result = 5.01

[[record]]
compound = "CCCC(CCC)N(CCNCCc1ccc(O)c2[nH]c(=O)sc12)C(=O)CCNCCc1ccc(F)cc1 [Example 64, bis-trifluoroacetic acid salt]"
unit_abbreviation = "µM"
quantitative_result = 6.31

[[record]]
compound = "CC(C)(CO)CN(CCNCCc1ccc(O)c2[nH]c(=O)sc12)C(=O)CCNCCc1cccc(Cl)c1 [Example 66, bis-trifluoroacetic acid salt]"
unit_abbreviation = "µM"
quantitative_result = 1.58


[a] NS(=O)(=O)c1ccc(CCNCCC(=O)N(CCNCCc2ccc(O)c3[nH]c(=O)sc23)C2CCCCC2)cc1 [Example 69, bis-trifluoroacetic acid salt]
[b] O=C(CCNCCc1ccc(F)cc1Cl)N(CCNCCc1ccc(O)c2[nH]c(=O)sc12)C1CCCCCC1 [Example 57, bis-trifluoroacetic acid salt]
[c] O=C(CCNCCc1ccc(F)c(F)c1)N(CCNCCc1ccc(O)c2[nH]c(=O)sc12)C1CCCCCC1 [Example 53, bis-trifluoroacetic acid salt]
[d] O=C(NCc1ccccc1)c1ccc(CCNCCC(=O)N(CCNCCc2ccc(O)c3[nH]c(=O)sc23)C2CCCCCC2)cc1 [Example 100, bis-trifluoroacetic acid salt]
**Q:** Put these in order: smallest IC50 first, largest last. Give the order by naming the labels one after another as requested.
**A:** d, b, c, a
(d: 1.26 µM, b: 2.51 µM, c: 3.98 µM, a: 6.31 µM)

[I] Cc1cccc(CCNCCC(=O)N(CCNCCc2ccc(O)c3[nH]c(=O)sc23)C2CCCCCC2)c1 [Example 85, bis-trifluoroacetic acid salt]
[II] O=C(CCNCCc1c(F)cccc1F)N(CCNCCc1ccc(O)c2[nH]c(=O)sc12)C1CCCCCC1 [Example 84, bis-trifluoroacetic acid salt]
[III] CC(C)(C)CN(CCNCCc1ccc(O)c2[nH]c(=O)sc12)C(=O)CCNC(C)(C)Cc1ccccc1 [Example 38, bis-trifluoroacetic acid salt]
**Q:** Hello, I need these entries ordered by IC50, highest reading first. Thanks! Labels, requested order.
**A:** III, I, II
(III: 5.01 µM, I: 2.51 µM, II: 1 µM)

Ref: patent US20100022491A1
